This collection of values is drawn from PubChem BioAssay AID1963435.

Measured viability, T/C, listed per entry.
Tested on: PANC-1 complex spheroid growth, percent test/control
Test: Anticancer human tumor PANC-1 cell line growth inhibition [Asc];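 further: spheroids exposed to agents for 7 days; percent viability relative to DMSO vehicle wells taken as 100%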
Details: second compound 0.0316 µM; first compound 0.316 µM; stronger effect = lower value

molecule	viability, T/C / %
COc1c(OCCCN2CCOCC2)ccc2c3n(c(=NC(=O)c4cnc(N)nc4)nc12)CCN3 + Cc1c(S(C)(=O)=O)c(-c2cc(F)cc(N3CCN(c4ccc(NS(=O)(=O)c5ccc(NC(CCN6CCC(C(=O)OCCCP(=O)(O)O)CC6)CSc6ccccc6)c(S(=O)(=O)C(F)(F)F)c5)cc4)CC3)c2)c(-c2ccc(Cl)cc2)n1C(C)C	69.4
C=C(F)C(=O)N1CCN(c2nc(OCC3CCCN3C)nc3c2CCN(c2cccc4cccc(Cl)c24)C3)CC1CC#N (centres undefined) + CNC(C)C(=O)NC1CN(S(=O)(=O)c2cccc(S(=O)(=O)N3CCC4CCC(C(=O)NC(c5ccccc5)c5ccccc5)N4C(=O)C(NC(=O)C(C)NC)C3)c2)CCC2CCC(C(=O)NC(c3ccccc3)c3ccccc3)N2C1=O	107
C#Cc1c(F)ccc2cc(O)cc(-c3ncc4c(N5CC6CCC(C5)N6)nc(OCC56CCCN5CC(F)C6)nc4c3F)c12 (centres undefined) + Cc1c(S(C)(=O)=O)c(-c2cc(F)cc(N3CCN(c4ccc(NS(=O)(=O)c5ccc(NC(CCN6CCC(C(=O)OCCCP(=O)(O)O)CC6)CSc6ccccc6)c(S(=O)(=O)C(F)(F)F)c5)cc4)CC3)c2)c(-c2ccc(Cl)cc2)n1C(C)C	81.4
CCN1CCN(Cc2ccc(Nc3ncc(F)c(-c4cc(F)c5nc(C)n(C(C)C)c5c4)n3)nc2)CC1 + CNC(C)C(=O)NC1CN(S(=O)(=O)c2cccc(S(=O)(=O)N3CCC4CCC(C(=O)NC(c5ccccc5)c5ccccc5)N4C(=O)C(NC(=O)C(C)NC)C3)c2)CCC2CCC(C(=O)NC(c3ccccc3)c3ccccc3)N2C1=O	116

###

Tested on: PANC-1 complex spheroid growth, percent test/control
Test: Anticancer human tumor PANC-1 cell line growth inhibition [Asc];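 further: spheroids exposed to agents for 7 days; percent viability relative to DMSO vehicle wells taken as 100%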
Conditions: second compound 0.316 µM; first compound 0.00949 µM; stronger effect = lower value
Readings of viability, T/C for the listed compounds
observed-property: viability, T/C

compound	experimental-result
CCN1C(C(=O)NC23CCC(C(=O)O)(CC2)CC3)C(c2cccc(Cl)c2F)C2(C(=O)Nc3cc(Cl)ccc32)C12CCCCC2 (stereo unspecified) + CNC(C)C(=O)NC1CN(S(=O)(=O)c2cccc(S(=O)(=O)N3CCC4CCC(C(=O)NC(c5ccccc5)c5ccccc5)N4C(=O)C(NC(=O)C(C)NC)C3)c2)CCC2CCC(C(=O)NC(c3ccccc3)c3ccccc3)N2C1=O	99.2%
Cc1nc(N2CCC3(CC2)COC(C)C3N)c(CO)nc1Sc1ccnc(N)c1Cl (stereo unspecified) + CNC(C)C(=O)NC1CN(S(=O)(=O)c2cccc(S(=O)(=O)N3CCC4CCC(C(=O)NC(c5ccccc5)c5ccccc5)N4C(=O)C(NC(=O)C(C)NC)C3)c2)CCC2CCC(C(=O)NC(c3ccccc3)c3ccccc3)N2C1=O	89.5%
Cc1nc(N2CCC3(CC2)COC(C)C3N)c(CO)nc1Sc1ccnc(N)c1Cl (stereo unspecified) + Cc1c(S(C)(=O)=O)c(-c2cc(F)cc(N3CCN(c4ccc(NS(=O)(=O)c5ccc(NC(CCN6CCC(C(=O)OCCCP(=O)(O)O)CC6)CSc6ccccc6)c(S(=O)(=O)C(F)(F)F)c5)cc4)CC3)c2)c(-c2ccc(Cl)cc2)n1C(C)C	103%
NC(=O)C(=Cn1cnc(-c2cc(C(F)(F)F)cc(C(F)(F)F)c2)n1)c1cncnc1 + Cc1c(S(C)(=O)=O)c(-c2cc(F)cc(N3CCN(c4ccc(NS(=O)(=O)c5ccc(NC(CCN6CCC(C(=O)OCCCP(=O)(O)O)CC6)CSc6ccccc6)c(S(=O)(=O)C(F)(F)F)c5)cc4)CC3)c2)c(-c2ccc(Cl)cc2)n1C(C)C	101%
CCN1C(C(=O)NC23CCC(C(=O)O)(CC2)CC3)C(c2cccc(Cl)c2F)C2(C(=O)Nc3cc(Cl)ccc32)C12CCCCC2 (stereo unspecified) + Cc1c(S(C)(=O)=O)c(-c2cc(F)cc(N3CCN(c4ccc(NS(=O)(=O)c5ccc(NC(CCN6CCC(C(=O)OCCCP(=O)(O)O)CC6)CSc6ccccc6)c(S(=O)(=O)C(F)(F)F)c5)cc4)CC3)c2)c(-c2ccc(Cl)cc2)n1C(C)C	99.8%
NC(=O)C(=Cn1cnc(-c2cc(C(F)(F)F)cc(C(F)(F)F)c2)n1)c1cncnc1 + CNC(C)C(=O)NC1CN(S(=O)(=O)c2cccc(S(=O)(=O)N3CCC4CCC(C(=O)NC(c5ccccc5)c5ccccc5)N4C(=O)C(NC(=O)C(C)NC)C3)c2)CCC2CCC(C(=O)NC(c3ccccc3)c3ccccc3)N2C1=O	79.2%
